system: NCI-H1792 (Lung Adenocarcinoma); assay: Bliss excess, mean over the matrix (fraction); higher = more synergy;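 also: after 72 h of two-drug dosing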

{"molecule": "Cc1nc(Nc2ncc(C(=O)Nc3c(C)cccc3Cl)s2)cc(N2CCN(CCO)CC2)n1 [Dasatinib] + CC(=O)Nc1cccc(-n2c(=O)n(C3CC3)c(=O)c3c(Nc4ccc(I)cc4F)n(C)c(=O)c(C)c32)c1 [Trametinib] (first compound max 2 µM, 7x7, partner max 1 µM)", "Bliss excess": 0.0422}
{"molecule": "N#Cc1cnc(Nc2cc(NC[C@H]3CNCCO3)c(C(F)(F)F)cn2)cn1 [SRA737] + O=c1[nH]cc(F)c(=O)[nH]1 [5-Fluorouracil] (first compound max 10 µM, 7x7, partner max 20 µM)", "Bliss excess": 0.0523}
{"molecule": "CN(CCO)CC[C@H](CSc1ccccc1)Nc1ccc(S(=O)(=O)NC(=O)c2ccc(N3CCC([C@@H](O)c4ccccc4-c4ccc(Cl)cc4)CC3)cc2)cc1S(=O)(=O)C(F)(F)F [AZD4320] + C[C@@H](Nc1cc(F)cc(F)c1)c1cc(C(=O)N(C)C)cc2c(=O)cc(N3CCOCC3)oc12 [AZD8186] (first compound max 1 µM, 7x7, partner max 3 µM)", "Bliss excess": 0.0942}
{"molecule": "O=C(c1cc(Cc2n[nH]c(=O)c3ccccc23)ccc1F)N1CCN(C(=O)C2CC2)CC1 [Olaparib] + Cc1c2c(nn1C)CSCc1cc(n(C)n1)CSc1cc(c3ccccc3c1)OCCCc1c(C(=O)O)n(C)c3c-2c(Cl)ccc13 [AZD5991] (first compound max 10 µM, 7x7, partner max 1 µM)", "Bliss excess": -0.041}
{"molecule": "CN(CCO)CC[C@H](CSc1ccccc1)Nc1ccc(S(=O)(=O)NC(=O)c2ccc(N3CCC([C@@H](O)c4ccccc4-c4ccc(Cl)cc4)CC3)cc2)cc1S(=O)(=O)C(F)(F)F [AZD4320] + C[C@@H]1COCCN1C2=NC(=NC(=C2)C3(CC3)[S@](=N)(=O)C)C4=C5C=CNC5=NC=C4 [AZD6738] (first compound max 1 µM, 7x7, partner max 10 µM)", "Bliss excess": -0.0647}
{"molecule": "CN(CCO)CC[C@H](CSc1ccccc1)Nc1ccc(S(=O)(=O)NC(=O)c2ccc(N3CCC([C@@H](O)c4ccccc4-c4ccc(Cl)cc4)CC3)cc2)cc1S(=O)(=O)C(F)(F)F [AZD4320] + CN(C)CCCOc1ccc(-c2ccc3ncc4c(c3c2)n(C2CCOCC2)c(=O)n4C)cn1 [AZD0156] (first compound max 1 µM, 7x7, partner max 1 µM)", "Bliss excess": -0.0144}
{"molecule": "C[C@@H](c1ccc2nccn2c1)n1nnc2ncc(-c3cnn(C)c3)nc21 [Savolitinib] + Cc1c2c(nn1C)CSCc1cc(n(C)n1)CSc1cc(c3ccccc3c1)OCCCc1c(C(=O)O)n(C)c3c-2c(Cl)ccc13 [AZD5991] (first compound max 1 µM, 7x7, partner max 1 µM)", "Bliss excess": -0.0279}
{"molecule": "COc1cccc2c1C(=O)c1c(O)c3c(c(O)c1C2=O)C[C@@](O)(C(=O)CO)C[C@@H]3O[C@H]1C[C@H](N)[C@H](O)[C@H](C)O1 [Doxorubicin] + Cc1cc2ncnn2cc1Nc1ncc2c(n1)n(C1CCOCC1)c(=O)n2C [AZD7648] (first compound max 1 µM, 7x7, partner max 10 µM)", "Bliss excess": 0.067}
{"molecule": "C[C@@H](Nc1cc(F)cc(F)c1)c1cc(C(=O)N(C)C)cc2c(=O)cc(N3CCOCC3)oc12 [AZD8186] + CC(=O)c1c(C)c2cnc(Nc3ccc(N4CCNCC4)cn3)nc2n(C2CCCC2)c1=O [Palbociclib] (first compound max 10 µM, 7x7, partner max 10 µM)", "Bliss excess": 0.0608}
{"molecule": "CC1(C)CCC(CN2CCN(c3ccc(C(=O)NS(=O)(=O)c4ccc(NCC5CCOCC5)c([N+](=O)[O-])c4)c(Oc4cnc5[nH]ccc5c4)c3)CC2)=C(c2ccc(Cl)cc2)C1 [Venetoclax] + Cc1cc2ncnn2cc1Nc1ncc2c(n1)n(C1CCOCC1)c(=O)n2C [AZD7648] (first compound max 1 µM, 7x7, partner max 10 µM)", "Bliss excess": -0.0591}
{"molecule": "COc1cccc(OCCCN)c1-c1cc(Nc2cnc(C#N)cn2)n[nH]1 [Prexasertib] + CN(C)CCCOc1ccc(-c2ccc3ncc4c(c3c2)n(C2CCOCC2)c(=O)n4C)cn1 [AZD0156] (first compound max 1 µM, 7x7, partner max 1 µM)", "Bliss excess": -0.0104}
{"molecule": "Cc1c2c(nn1C)CSCc1cc(n(C)n1)CSc1cc(c3ccccc3c1)OCCCc1c(C(=O)O)n(C)c3c-2c(Cl)ccc13 [AZD5991] + Nc1ccn([C@@H]2O[C@H](CO)[C@@H](O)C2(F)F)c(=O)n1 [Gemcitabine] (first compound max 1 µM, 7x7, partner max 0.3 µM)", "Bliss excess": -0.0308}
{"molecule": "C[C@@H]1COCCN1c1cc(C2([S@](C)(=N)=O)CC2)nc(-c2ccnc3[nH]ccc23)n1 [AZD6738] + C1CC(C1)(C(=O)[O-])C(=O)[O-].N.N.[Pt+2] [Carboplatin] (first compound max 10 µM, 7x7, partner max 10 µM)", "Bliss excess": -0.0303}

The values you see were collected from the supplement of paper PMC11061612.
